- system.tested: Recombinant STAT3 protein (STAT3 (G127-I722)) (Homo sapiens)
- Construct: Recombinant STAT3 protein (STAT3 (G127-I722))
- Sequence (P40763 127-722): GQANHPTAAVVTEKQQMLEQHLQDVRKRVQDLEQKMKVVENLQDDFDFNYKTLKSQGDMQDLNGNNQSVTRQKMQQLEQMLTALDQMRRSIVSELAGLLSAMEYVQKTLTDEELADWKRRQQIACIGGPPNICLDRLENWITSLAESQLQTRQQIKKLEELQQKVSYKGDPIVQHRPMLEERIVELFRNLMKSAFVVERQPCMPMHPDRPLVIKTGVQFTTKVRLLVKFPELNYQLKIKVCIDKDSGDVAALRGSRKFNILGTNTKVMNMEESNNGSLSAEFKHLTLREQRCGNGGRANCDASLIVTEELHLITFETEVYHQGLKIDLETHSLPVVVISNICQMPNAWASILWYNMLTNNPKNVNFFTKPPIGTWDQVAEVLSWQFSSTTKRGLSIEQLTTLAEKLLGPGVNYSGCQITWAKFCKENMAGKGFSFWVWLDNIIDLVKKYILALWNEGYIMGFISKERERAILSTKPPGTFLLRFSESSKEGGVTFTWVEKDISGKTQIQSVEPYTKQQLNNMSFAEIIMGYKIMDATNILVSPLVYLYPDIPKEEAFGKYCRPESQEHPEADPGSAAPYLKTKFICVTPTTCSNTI
- test.summary: STAT3 Fluorescence Polarization (FP) Assay
- Format: binding
- protocol.conditions: STAT3 25 nM, probe 5-FAM-GpYLPQTV-NH2 2 nM, 45-minute incubation; read-out: STAT3 (FP assay IC50)
pIC50: −log10 of the molar value.
Listed molecules paired with reported pIC50

Example entries and their recorded answers appear below.
N#C[C@H]1CN(C(=O)[C@@H]2CC[C@@H]3CCCC[C@H](NC(=O)c4cc5cc(CP(=O)(O)O)ccc5s4)C(=O)N32)C[C@@H]1c1ccccc1 (single isomer, unassigned)    < 5.00
CN(C(=O)[C@@H]1CC[C@@H]2C/C=C\C[C@H](NC(=O)c3cc4cc(C(F)(F)P(=O)(O)O)ccc4[nH]3)C(=O)N21)c1ccccc1    5.00 to 6.00
N#C[C@@H]1CN(C(=O)[C@@H]2C[C@@H](O)[C@@H]3CCCCC[C@H](NC(=O)c4ccc5ccc(C(F)(F)P(=O)(O)O)cc5c4)C(=O)N23)C[C@H]1c1cc[nH]c(=O)c1 (single isomer, unassigned)    5.00 to 6.00
Cn1nccc1C=C1CN(C(=O)[C@@H]2CC[C@@H]3CCCC[C@H](NC(=O)c4cc5cc(C(F)(F)P(=O)(O)O)ccc5s4)C(=O)N32)C1    6.00 to 7.00
N#C[C@@H]1CN(C(=O)[C@@H]2CCC[C@@H]3CCC[C@H](NC(=O)c4cc5cc(C(F)(F)P(=O)(O)O)ccc5s4)C(=O)N32)C[C@H]1c1ccccc1 (single isomer, unassigned)    6.00 to 7.00
N=S1(=O)CCC(C2CN(C(=O)[C@@H]3CC[C@@H]4CCCC[C@H](NC(=O)c5cc6cc(C(F)(F)P(=O)(O)O)ccc6s5)C(=O)N43)C2)CC1 (some centres unmarked)    6.00 to 7.00
N#C[C@@H]1CN(C(=O)[C@@H]2CC[C@@H]3CCC[C@H](NC(=O)c4cc5cc(C(F)(F)P(=O)(O)O)ccc5s4)C(=O)N32)C[C@H]1c1ccccc1 (relative stereo)    6.00 to 7.00
O=C(N[C@H]1CCCC[C@H]2CC[C@@H](C(=O)NC(CO)Cc3ccccc3)N2C1=O)c1cc2cc(C(F)(F)P(=O)(O)O)ccc2s1 (some centres unmarked)    6.00 to 7.00
Cn1ccc(C2CN(C(=O)[C@@H]3CC[C@@H]4CCCC[C@H](NC(=O)c5cc6cc(C(F)(F)P(=O)(O)O)ccc6s5)C(=O)N43)C2)n1    6.00 to 7.00
Cn1c(C2CN(C(=O)[C@@H]3CC[C@@H]4CCCC[C@H](NC(=O)c5cc6cc(C(F)(F)P(=O)(O)O)ccc6s5)C(=O)N43)C2)nc2ccccc21    > 7.00

Kindly review the next molecule as well.
[in] Quick check: pIC50 of N#C[C@@H]1CN(C(=O)[C@@H]2CCC[C@@H]3CCCC[C@H](NC(=O)c4cc5cc(C(F)(F)P(=O)(O)O)ccc5s4)C(=O)N32)CC1c1ccccc1 (mixture of isomers) ?
[out] 6.00 to 7.00
